# SYSTEM TESTED: 5-HT2A receptor (Homo sapiens (Human), UniProt P28223)
# RUN DESCRIPTION: Radioligand binding assay ([3H]-ketanserin) on membranes of HEK293 EBNA cells expressing human 5-HT2A receptor
# CONDITION INFO: read-out: 5HT2A Ki; human receptor in HEK293 EBNA cells; 1.1 nM [3H]-ketanserin
Assign pKi to each entry below.
Give bare numbers, as −log10 of the molar value.

Quick batch: pKi for everything below.
1. Cc1cc(CC(=O)N[C@H]2CC[C@H](CCN3CCC(c4cccc5c4OCO5)CC3)CC2)on1 [Example 19]
2. C[C@@H](O)C(=O)N[C@H]1CC[C@H](CCN2CCC(c3cccc4c3OCO4)CC2)CC1 [Example 64]
3. O=C(CO)N[C@H]1CC[C@H](CCN2CCC(c3cccc4c3OCO4)CC2)CC1 [Example 65]
4. O=C(CC1COC1)N[C@H]1CC[C@H](CCN2CCC(c3cccc4c3OCO4)CC2)CC1 [Example 29]

1: 7.70; 2: 7.97; 3: 7.67; 4: 7.66

Quick batch: pKi for everything below.
1. CS(=O)(=O)CC(=O)N[C@H]1CC[C@H](CCN2CCC(c3cccc4c3OCO4)CC2)CC1 [Example 55]
2. CS(=O)(=O)N[C@H]1CC[C@H](CCN2CCC(c3cccc4c3OCO4)CC2)CC1 [Example 69]
3. CN(C)C(=O)N[C@H]1CC[C@H](CCN2CCC(c3cccc4c3OCO4)CC2)CC1 [Example 75]

[7.57, 7.50, 7.34]
